- Protocol summary: Maximum tolerated dose of free and liposomal Topotecan, 3 weekly i.v. injections
- Study conditions: female, Swiss-Webster, mouse, in vivo, iv
Where a name gives a salt, the structure may show the parent alone.
Endpoint name: MTD at 3 once-a-week injections (mg/kg)

> print(dat)
                                   molecule  result
1  CC[C@@]1(O)C(=O)OCc2c1cc1n(c2=O)Cc2cc3c(CN(C)C)c(O)ccc3nc2-1 [free Topotecan, Topotecan Hydrochloride]    18.4

----------
- Protocol summary: in vivo
- Study conditions: Sprague-Dawley, rat, brain, other: CED infusion into the brain, 0.06 mg
Structures can show the parent of a compound that is named as a salt.
Endpoint name: MRT (h)

> print(dat)
                                   molecule  unit.info  result
1  CCc1c2c(nc3ccc(OC(=O)N4CCC(N5CCCCC5)CC4)cc13)-c1cc3c(c(=O)n1C2)COC(=O)[C@]3(O)CC [free CPT-11, Irinotecan hydrochloride]          h     9.6
